Source listed as ChEMBL document CHEMBL6092221.

biological target: Cyclin-Y/Cyclin-dependent kinase 16 (Homo sapiens, UniProt Q00536); test: Inhibition of CDK16/CyclinY (unknown origin)
Sequence (Q00536 whole entry): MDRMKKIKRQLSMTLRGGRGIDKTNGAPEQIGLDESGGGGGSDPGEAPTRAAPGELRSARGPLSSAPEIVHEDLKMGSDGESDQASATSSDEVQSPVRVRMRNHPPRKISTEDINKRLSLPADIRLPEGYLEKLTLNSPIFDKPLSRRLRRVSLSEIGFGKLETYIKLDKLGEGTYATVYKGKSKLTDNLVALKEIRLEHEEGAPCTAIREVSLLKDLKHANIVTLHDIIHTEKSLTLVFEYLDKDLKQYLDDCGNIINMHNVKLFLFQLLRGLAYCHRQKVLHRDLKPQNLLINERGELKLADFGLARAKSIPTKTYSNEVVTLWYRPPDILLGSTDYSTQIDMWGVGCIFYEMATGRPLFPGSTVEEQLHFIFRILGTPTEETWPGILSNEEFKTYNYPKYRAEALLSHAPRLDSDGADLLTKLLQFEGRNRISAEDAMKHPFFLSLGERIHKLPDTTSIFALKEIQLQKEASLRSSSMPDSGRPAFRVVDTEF
Sequence (Q8ND76 whole entry, further chain): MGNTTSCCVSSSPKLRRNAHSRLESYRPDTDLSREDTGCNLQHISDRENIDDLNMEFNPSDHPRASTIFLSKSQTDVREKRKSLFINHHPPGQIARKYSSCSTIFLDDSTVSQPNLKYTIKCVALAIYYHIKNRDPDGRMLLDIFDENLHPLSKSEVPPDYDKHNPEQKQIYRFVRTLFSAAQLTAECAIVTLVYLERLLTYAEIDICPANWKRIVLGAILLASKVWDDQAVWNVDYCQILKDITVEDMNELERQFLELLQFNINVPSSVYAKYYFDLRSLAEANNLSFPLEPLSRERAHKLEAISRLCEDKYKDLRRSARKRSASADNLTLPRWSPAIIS
Property name: pIC50
Entry type: numeric. Quantity: pIC50, the -log10 of concentration in molar units.

Determine its reported pIC50: CN1CC(F)(F)CCN(C)[C@H]2CC[C@@H](C2)Nc2ncc(C(F)(F)F)c(n2)-c2c[nH]c3c(P(C)(C)=O)c(ccc23)C1=O
8.55

----------
assay: AUC(0 to t) in mouse at 5 mg/kg, po; assay type: ADME, organism-based; settings: in vivo
Measured AUC(0-t), listed per entry for reference.
Your answer is read as ng·h/mL, so omit the unit and give the number.

Structure notation	Property name	Data value
CC1(C)CC[C@H](Nc2ncc(C(F)(F)F)c(-c3c[nH]c4c(P(C)(C)=O)c(C#N)ccc34)n2)CN1	AUC(0-t)	1920

Determine its reported AUC(0-t): CN1CC(F)(F)CCN(C)[C@H]2CC[C@@H](C2)Nc2ncc(C(F)(F)F)c(n2)-c2c[nH]c3c(P(C)(C)=O)c(ccc23)C1=O
938

----------
assay: AUC(0 to 48 hrs) in Sprague-Dawley rat at 300 mg/kg, po; assay type: ADME, organism-based; details: in vivo
Property name: AUC(0-t) (ng·h/mL)
Your answer is read as ng·h/mL, so omit the unit and give the number.

Determine its reported AUC(0-t): CN1CC(F)(F)CCN(C)[C@H]2CC[C@@H](C2)Nc2ncc(C(F)(F)F)c(n2)-c2c[nH]c3c(P(C)(C)=O)c(ccc23)C1=O
15300

----------
assay: Half life in human HCC70 cells xenografted in female nu/nu mouse plasma at 1 mg/kg, po administered once daily; format: ADME, organism-based
Property name: half-life (h)
Your answer is read as h, so omit the unit and give the number.

Determine its reported half-life: CN1CC(F)(F)CCN(C)[C@H]2CC[C@@H](C2)Nc2ncc(C(F)(F)F)c(n2)-c2c[nH]c3c(P(C)(C)=O)c(ccc23)C1=O
2

----------
test: Volume of distribution at steady state in female Balb/c nude mouse at 1 mg/kg, iv; type: ADME, organism-based; conditions: in vivo, read-out: Vdss
Measured Vd, listed per entry for reference.
Your answer is read as L/kg, so omit the unit and give the number.

Reference set (3 entries):
Structure notation	Vd [L/kg]
CP(C)(=O)c1c2ccc3c(c[nH]c13)-c1nc(ncc1C(F)(F)F)N[C@H]1CC[C@@H](C1)NCCCCNC2=O	3.6
CP(C)(=O)c1c2ccc3c(c[nH]c13)-c1nc(ncc1C(F)(F)F)N[C@H]1CC[C@@H](C1)NCCOCCNC2=O	12
CN1C[C@@H](F)CCN(C)[C@H]2CC[C@@H](C2)Nc2ncc(C(F)(F)F)c(n2)-c2c[nH]c3c(P(C)(C)=O)c(ccc23)C1=O	3.6

Alright, here's another molecule for you.
Determine its reported Vd: CN1CCCCN(C)[C@H]2CC[C@@H](C2)Nc2ncc(C(F)(F)F)c(n2)-c2c[nH]c3c(P(C)(C)=O)c(ccc23)C1=O
5.6

----------
experiment: Volume of distribution at steady state in mouse at 1 mg/kg, iv; type: ADME, organism-based; conditions: in vivo, read-out: Vdss
Property name: Vd
Record the result as a number with its unit.

Determine its reported Vd: CN1CC(F)(F)CCN(C)[C@H]2CC[C@@H](C2)Nc2ncc(C(F)(F)F)c(n2)-c2c[nH]c3c(P(C)(C)=O)c(ccc23)C1=O
1.7 L/kg

----------
experiment: AUC (0 to t) in dog at 1 mg/kg, iv; type: ADME, organism-based, Canis lupus familiaris; settings: in vivo
Property name: AUC(0-t) (ng·h/mL)
Your answer is read as ng·h/mL, so omit the unit and give the number.

Determine its reported AUC(0-t): CC1(C)CC[C@H](Nc2ncc(C(F)(F)F)c(-c3c[nH]c4c(P(C)(C)=O)c(C#N)ccc34)n2)CN1 [SY-5609]
1110

----------
test: Volume of distribution at steady state in female Balb/c nude mouse at 1 mg/kg, iv; assay type: ADME, organism-based; details: in vivo, read-out: Vdss
Measured Vd, listed per entry for reference.
Record the result as a number with its unit.

Structure notation	Data value
CN1CC(F)(F)CCN(C)[C@H]2CC[C@@H](C2)Nc2ncc(C(F)(F)F)c(n2)-c2c[nH]c3c(P(C)(C)=O)c(ccc23)C1=O	1.7 L/kg
CN1CCCCO[C@H]2CC[C@@H](C2)Nc2ncc(C(F)(F)F)c(n2)-c2c[nH]c3c(P(C)(C)=O)c(ccc23)C1=O	1 L/kg

Alright, here's another molecule for you.
Determine its reported Vd: CN1CCOCCN(C)[C@H]2CC[C@@H](C2)Nc2ncc(C(F)(F)F)c(n2)-c2c[nH]c3c(P(C)(C)=O)c(ccc23)C1=O
1.5 L/kg

----------
assay: Half life in mouse at 1 mg/kg, iv; type: ADME, organism-based; conditions: in vivo
Property name: half-life
Record the result as a number with its unit.

Determine its reported half-life: CN1CC(F)(F)CCN(C)[C@H]2CC[C@@H](C2)Nc2ncc(C(F)(F)F)c(n2)-c2c[nH]c3c(P(C)(C)=O)c(ccc23)C1=O
2 h

----------
assay: Metabolic stability in mouse liver microsomes assessed as intrinsic clearance; assay type: ADME, Microsome; conditions: read-out: CLH
Measured CLint scaled, listed per entry for reference.

Structure notation	CLint scaled
CN1CC(F)(F)CCN(C)[C@H]2CC[C@@H](C2)Nc2ncc(C(F)(F)F)c(n2)-c2c[nH]c3c(P(C)(C)=O)c(ccc23)C1=O	84.3 mL/min/kg

Determine its reported CLint scaled: CP(C)(=O)c1c2ccc3c(c[nH]c13)-c1nc(ncc1C(F)(F)F)N[C@H]1CC[C@@H](C1)NCCCCNC2=O
< 13.4 mL/min/kg

Determine its reported CLint scaled: CP(C)(=O)c1c2ccc3c(c[nH]c13)-c1nc(ncc1C(F)(F)F)N[C@H]1CC[C@@H](C1)NCCOCCNC2=O
< 13.4 mL/min/kg

Determine its reported CLint scaled: CC1(C)CC[C@H](Nc2ncc(C(F)(F)F)c(-c3c[nH]c4c(P(C)(C)=O)c(C#N)ccc34)n2)CN1
< 26.7 mL/min/kg

----------
biological target: hERG (Homo sapiens); experiment: Inhibition of hERG at 10 uM relative to control; type: toxicity
Sequence (Q12809 whole entry): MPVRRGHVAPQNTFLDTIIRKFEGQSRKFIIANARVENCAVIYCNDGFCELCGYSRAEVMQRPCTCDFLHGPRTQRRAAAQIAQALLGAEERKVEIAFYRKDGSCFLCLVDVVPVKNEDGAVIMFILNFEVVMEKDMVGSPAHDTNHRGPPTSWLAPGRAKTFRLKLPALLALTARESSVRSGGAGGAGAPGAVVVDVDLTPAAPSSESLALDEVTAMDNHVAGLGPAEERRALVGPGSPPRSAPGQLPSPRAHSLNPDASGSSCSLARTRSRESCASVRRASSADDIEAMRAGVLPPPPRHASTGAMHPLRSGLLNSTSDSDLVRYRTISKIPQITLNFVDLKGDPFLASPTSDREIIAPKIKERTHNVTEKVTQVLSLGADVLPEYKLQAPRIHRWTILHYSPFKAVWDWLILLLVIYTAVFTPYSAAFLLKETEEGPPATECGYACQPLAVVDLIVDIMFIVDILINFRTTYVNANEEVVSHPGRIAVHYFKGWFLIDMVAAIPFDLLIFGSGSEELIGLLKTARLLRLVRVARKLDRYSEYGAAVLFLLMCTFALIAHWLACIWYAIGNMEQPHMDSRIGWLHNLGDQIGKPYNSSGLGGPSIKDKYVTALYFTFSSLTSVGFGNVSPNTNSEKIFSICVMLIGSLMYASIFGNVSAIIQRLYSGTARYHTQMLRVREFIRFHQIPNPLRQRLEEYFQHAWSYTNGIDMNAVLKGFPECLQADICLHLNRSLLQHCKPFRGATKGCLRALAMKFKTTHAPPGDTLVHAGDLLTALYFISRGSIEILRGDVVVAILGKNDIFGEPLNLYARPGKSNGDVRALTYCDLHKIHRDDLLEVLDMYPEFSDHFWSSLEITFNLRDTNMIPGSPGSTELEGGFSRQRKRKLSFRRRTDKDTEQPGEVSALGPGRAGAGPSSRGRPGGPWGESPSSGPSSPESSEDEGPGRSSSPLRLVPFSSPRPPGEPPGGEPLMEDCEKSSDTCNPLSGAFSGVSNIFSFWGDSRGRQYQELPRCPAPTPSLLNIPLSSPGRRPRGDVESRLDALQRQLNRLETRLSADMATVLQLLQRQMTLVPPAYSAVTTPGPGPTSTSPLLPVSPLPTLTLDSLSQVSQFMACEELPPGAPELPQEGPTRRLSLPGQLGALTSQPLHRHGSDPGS
Property name: inhibition at 10 µM (%)
Your answer is read as %, so omit the unit and give the number.

Tell me inhibition at 10 µM of CC1(C)CC[C@H](Nc2ncc(C(F)(F)F)c(-c3c[nH]c4c(P(C)(C)=O)c(C#N)ccc34)n2)CN1 [SY-5609] when tested on hERG (Homo sapiens).
37.1

----------
assay: Half life in female Balb/c nude mouse at 5 mg/kg, po; type: ADME, organism-based; details: in vivo
Could you mark each record Fulfilled if its half-life falls strictly under 2 h, and Not fulfilled if it equals or exceeds it?

These recorded examples may help you get a feel for the data.
Structure notation	Category label
CN1CC(F)(F)CCN(C)[C@H]2CC[C@@H](C2)Nc2ncc(C(F)(F)F)c(n2)-c2c[nH]c3c(P(C)(C)=O)c(ccc23)C1=O	Not fulfilled
CN1C[C@@H](F)CCN(C)[C@H]2CC[C@@H](C2)Nc2ncc(C(F)(F)F)c(n2)-c2c[nH]c3c(P(C)(C)=O)c(ccc23)C1=O	Not fulfilled
CN1CCCCN(C)[C@H]2CC[C@@H](C2)Nc2ncc(C(F)(F)F)c(n2)-c2c[nH]c3c(P(C)(C)=O)c(ccc23)C1=O	Not fulfilled
CN1CCCCO[C@H]2CC[C@@H](C2)Nc2ncc(C(F)(F)F)c(n2)-c2c[nH]c3c(P(C)(C)=O)c(ccc23)C1=O	Fulfilled

Please state whether half-life is below 2 h for CN1CCOCCN(C)[C@H]2CC[C@@H](C2)Nc2ncc(C(F)(F)F)c(n2)-c2c[nH]c3c(P(C)(C)=O)c(ccc23)C1=O
Fulfilled

----------
test: Cmax in mouse at 5 mg/kg, po; type: ADME, organism-based; conditions: in vivo
Measured Cmax, listed per entry for reference.
Your answer is read as ng/mL, so omit the unit and give the number.

Structure notation	Quantity unit	Cmax
CN1CC(F)(F)CCN(C)[C@H]2CC[C@@H](C2)Nc2ncc(C(F)(F)F)c(n2)-c2c[nH]c3c(P(C)(C)=O)c(ccc23)C1=O	ng/mL	355

Determine its reported Cmax: CC1(C)CC[C@H](Nc2ncc(C(F)(F)F)c(-c3c[nH]c4c(P(C)(C)=O)c(C#N)ccc34)n2)CN1
339

----------
assay: AUC(0 to 24 hrs) in Sprague-Dawley rat at 30 mg/kg, po; assay type: ADME, organism-based; conditions: in vivo
Property name: AUC(0-t) (ng·h/mL)
Your answer is read as ng·h/mL, so omit the unit and give the number.

Determine its reported AUC(0-t): CN1CC(F)(F)CCN(C)[C@H]2CC[C@@H](C2)Nc2ncc(C(F)(F)F)c(n2)-c2c[nH]c3c(P(C)(C)=O)c(ccc23)C1=O
3960
